B1: Transitional endoplasmic reticulum ATPase, residues 26 to 106; numbered along this chain, P55072 (parent)
chain: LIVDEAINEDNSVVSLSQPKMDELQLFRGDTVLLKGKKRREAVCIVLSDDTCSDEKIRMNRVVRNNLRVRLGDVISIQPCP

- Variants of: B1
- ASSAY_OVERVIEW: abundance fitness (aPCA) (normalised: wild type 0, dead -1); higher = more abundant; growth selection in yeast, the domain comes from the species named
- EXPERIMENTAL_CONTEXT: Homo sapiens
Recorded abundance fitness, one value per entry.
Form field (numeric): enter value without unit.

In the examples that follow, each entry is paired with its recorded abundance fitness.
V14R    -0.884
N66A    -0.071
G36L    -0.757
V63N    -0.276
L16Q    -0.584
R68F    -0.165
C52K    -0.334
R40W    -0.059

**Query** Please report the recorded abundance fitness for C52T .
**Result** -0.027

**Query** Entry to check: E9W
**Result** -0.098

**Query** Entry to check: L71F
**Result** -0.184

**Query** Entry to check: E55Q
**Result** 0.003

**Query** Entry to check: K37A
**Result** -0.222

**Query** Entry to check: Q25C
**Result** 0.006

**Query** Entry to check: C52E
**Result** -0.416

**Query** Entry to check: N65W
**Result** -0.157

**Query** Entry to check: I45Y
**Result** -0.029

**Query** Entry to check: M21I
**Result** -0.124
